Hello, the source for this data is patent US20100068199A1, in case you need it.

Measured target: T1, recombinant human PCSK9 (human, UniProt Q8NBP7 31-692)
T1 construct: also called hPCSK9
T1 sequence (Q8NBP7 31-692 limits assumed): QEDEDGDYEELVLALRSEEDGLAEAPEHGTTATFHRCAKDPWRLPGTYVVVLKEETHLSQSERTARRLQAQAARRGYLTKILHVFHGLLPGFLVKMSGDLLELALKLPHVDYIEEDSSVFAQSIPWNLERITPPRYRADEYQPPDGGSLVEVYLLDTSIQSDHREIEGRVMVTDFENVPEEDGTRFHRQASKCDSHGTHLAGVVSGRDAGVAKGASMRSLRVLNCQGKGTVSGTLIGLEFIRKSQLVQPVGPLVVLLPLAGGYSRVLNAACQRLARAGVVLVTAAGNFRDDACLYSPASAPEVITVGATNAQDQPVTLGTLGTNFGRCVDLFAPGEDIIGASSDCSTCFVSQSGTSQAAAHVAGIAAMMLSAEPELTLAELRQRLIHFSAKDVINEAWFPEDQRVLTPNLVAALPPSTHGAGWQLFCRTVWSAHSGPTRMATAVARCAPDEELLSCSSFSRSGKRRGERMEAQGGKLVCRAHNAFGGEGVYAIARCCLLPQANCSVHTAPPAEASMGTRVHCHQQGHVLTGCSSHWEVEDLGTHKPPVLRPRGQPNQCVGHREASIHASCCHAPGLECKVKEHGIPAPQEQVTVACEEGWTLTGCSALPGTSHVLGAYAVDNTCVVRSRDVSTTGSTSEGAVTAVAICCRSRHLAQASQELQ
Test summary: SPR (Biacore 3000); full-length IgG captured on anti-mouse IgG, PCSK9 injected
# key: entry, value: pKd
Scale for pKd: -log10 of concentration given in mol/L; no unit attached.

Prompt line: # pKd lookup, item anti-PCSK9 antagonist monoclonal antibody 6F6 (antibody, V domains shown, Murine full-length IgG from a hybridoma; also called 6F6.G10.3 (subclone); ATCC PTA-8984) VH: EVQLQQSGPELVKPGASVKISCKASGYTFTDYYMNWVKQSHGKSLEWIGDINPNNGGTSYNQKFKGKATLTVDKSSSTAYMELRSLTSEDSAVYYCAGGGIYYRYDRNYFDYWGQGTTLTVSS VL: DIQMTQTTSSLSASLGDRVTISCSASQGISNYLNWYQQKPDGTVKLLIYYTSSLHSGVPSRFSGSGSGTDYSLTISNLEPEDIATYYCQQYSKLPFTFGSGTKLEIK
Response line: 8.19

Prompt line: Name the reported pKd value associated with the binder anti-PCSK9 antagonist monoclonal antibody 5A10 (antibody, V domains shown, Murine full-length IgG from a hybridoma; Mouse precursor of L1L3; also called 5A10.B8 (subclone)) VH: QVQLQQPGAELVKPGASVKLSCKASGYTFTSYWMHWVKQRPGQGLEWIGEINPSNGRTNYNEKFKSKATLTVDKSSSTAYMQLSSLTSEDSAVYYCARERPLYAMDYWGQGTSVTVSS VL: DIVMTQSHKFMSTSVGDRVSITCKASQDVSTAVAWYQQKPGQSPKLLIYSASYRYTGVPDRFTGSGSGTDFTFTISSVQAEDLAVYYCQQRYSTPRTFGGGTKLEIKR
Response line: 9.00

Prompt line: Data request, read-out pKd, for anti-PCSK9 antagonist monoclonal antibody 7D4 (antibody, V domains shown, Murine full-length IgG from a hybridoma; also called 7D4.4 (subclone); ATCC PTA-8983) VH: EVKLVESEGGLVQPGSSMKLSCTASGFTFSDYYMAWVRQVPEKGLEWVANINYDGSNTSYLDSLKSRFIISRDNAKNILYLQMSSLKSEDTATYYCAREKFAAMDYWGQGTSVTVSS VL: DIVMTQSHKFMSTSFGDRVSITCKASQDVSNALAWYQQKPGHSPKLLIFSASYRYTGVPDRFTGSGSGTDFTFTISSVQAEDLAVYYCQQHYSTPWTFGGGTKLEIKR
Response line: 8.19

Prompt line: Which measured pKd value corresponds to anti-PCSK9 antagonist monoclonal antibody 4A5 (antibody, V domains shown, Murine full-length IgG from a hybridoma; also called 4A5.G3 (subclone); ATCC PTA-8985) VH: EVQLQQSGPELVKPGASVKISCKASGYTFTDYYMNWVKQSHGKSLEWIGDINPNNGGTTYNQKFKGKATLTVDKSYSTAYMELRSLTSEDSAVYYCARWLLFAYWGQGTLVTVSA VL: DIVMTQSQKFMSTSVGDRVSVTCKASQNVGTNVAWYQQKPGQSPKALIYSASYRYSGVPDRFTGSGSGTDFTLTISNVLSEDLAEYFCQQFYSYPYTFGGGTKLEIKR ?
Response line: 8.55
